ASSAY_NOTES: APR_HepG2_P-H2AX_24hr: Apredica 24-hour HepG2 Assay for H2AX Phosphorylation (AID 2282920)
CONDITION_SUMMARY: high-content imaging, actives raise or lower the signal
Description: APR_HepG2_24hr is a cell-based, multiplexed-readout assay that uses HepG2, a human liver cell line, with measurements taken at 24 hours after chemical dosing in a 384-well plate.APR_HepG2_P-H2AX_24hr is one of 10 assay component(s) measured or calculated from the APR_HepG2_24hr assay. […] This assay endpoint, APR_HepG2_P-H2AX_24hr, was analyzed with bidirectional fitting relative to DMSO as the negative control and baseline of activity. […]
Active and inactive are the calls of the source. The calls were made as follows: active = hit-call score of the fitted dose curve at least 0.9, where 1 is the maximum; inactive = score below 0.9.
REPORTED_ENDPOINT: AC50

Field: example entries. Status: answers known.
{"columns": ["COMPOUND", "REPORTED_ENDPOINT", "DATA_VALUE"],
 "data": [
  ["O=c1[nH]c2ccc(S(=O)CCN3CCC(Cc4ccc(F)cc4)CC3)cc2o1 (stereo not given)", "AC50", "inactive"],
  ["Cn1c(=O)cc(Oc2ccc(F)cc2F)c2cnc(NCC(C)(C)O)nc21", "AC50", "inactive"],
  ["CCCCC(CC)COC(=O)CCCCCCCCC(=O)OCC(CC)CCCC (stereo not given)", "AC50", "116 µM (active)"],
  ["CCCCCCc1ccc(O)cc1O", "AC50", "101 µM (active)"],
  ["Cc1[nH]cnc1C[C@H]1CCc2c(C)c3ccccc3n2C1=O", "AC50", "92.8 µM (active)"],
  ["O=C(OC[C@H]1O[C@@H](OC(=O)c2cc(O)c(O)c(OC(=O)c3cc(O)c(O)c(O)c3)c2)[C@H](OC(=O)c2cc(O)c(O)c(OC(=O)c3cc(O)c(O)c(O)c3)c2)[C@@H](OC(=O)c2cc(O)c(O)c(OC(=O)c3cc(O)c(O)c(O)c3)c2)[C@@H]1OC(=O)c1cc(O)c(O)c(OC(=O)c2cc(O)c(O)c(O)c2)c1)c1cc(O)c(O)c(OC(=O)c2cc(O)c(O)c(O)c2)c1", "AC50", "inactive"],
  ["Cc1ccc(N)cc1O", "AC50", "inactive"],
  ["CCOCCOCCOCCO", "AC50", "inactive"],
  ["CC(C)=CCC/C(C)=C/CO", "AC50", "inactive"],
  ["O=C(O)c1cccc(Oc2ccccc2)c1", "AC50", "inactive"]
]}

// sample CC(O)CN(CCN(CC(C)O)CC(C)O)CC(C)O (stereo not given) , its AC50 was inactive

// sample CC(=O)c1ccc2c(c1)[C@H](NC(=O)c1ccc(F)cc1)[C@@H](O)C(C)(C)O2 , its AC50 was inactive

// sample COCCOCCOCCOC , its AC50 was inactive

// sample CC(C)=CCCC(C)=CC=O , its AC50 was inactive

// sample Clc1nc(Cl)c(Cl)c(Cl)c1Cl , its AC50 was 41.2 µM (active)
